Reference source for all entries: patent US20150141411A1

Target: γ-secretase (Homo sapiens, UniProt P49768)
Construct: endogenous in cells; host or cells: SKNBE2 human neuroblastoma cells (carrying hAPP 695 wild type as substrate)
Assay: Screening for γ-secretase-modulating activity: Aβ42 in supernatant of SKNBE2 cells carrying hAPP 695 wild type (Alphalisa)
Format: cell-based
Conditions: SKNBE2 human neuroblastoma cells carrying hAPP 695 wild type, overnight incubation, Aβ42 in cell supernatant
Description: Screening was carried out using SKNBE2 human neuroblastoma cells carrying the hAPP 695—wild type, grown in Dulbecco's Modified Eagle's Medium/Nutrient mixture F-12 (DMEM/NUT-mix F-12) (HAM) provided by Invitrogen (cat no. 10371-029) containing 5% Serum/Fe supplemented with 1% non-essential amino acids, 1-glutamine 2 mM, Hepes 15 mM, penicillin 50 U/ml (units/ml) en streptomycin 50 μg/ml. Cells were grown to near confluency. […]
pIC50: −log10 of the molar value.
Observed Property: pIC50

// solved cases for pIC50 follow
Lab note: Cc1cn(-c2ccc3n(c2=O)CCN(CCC2COc4ccccc4O2)C3=O)cn1 (stereo not shown) gave pIC50 of 5.61

Lab note: Cc1cn(-c2ccc3n(c2=O)C[C@@H](C)N(CCc2cccc(C(F)(F)F)c2C)C3=O)cn1 gave pIC50 of 6.89

(a) Cc1cn(-c2ccc3n(c2=O)CCN(Cc2ccc(Cl)c(C(F)(F)F)c2)C3=O)cn1
(b) Cc1cn(-c2ccc3n(c2=O)CC(C(C)O)N(Cc2cc(C(F)(F)F)cc(C(F)(F)F)c2)C3=O)cn1 (stereo not shown)
(c) Cc1cn(-c2ccc3n(c2=O)C[C@@H](C)N(Cc2c[nH]c4ccc(Cl)cc24)C3=O)cn1
(d) Cc1cn(-c2ccc3n(c2=O)C[C@@H](C)N(Cc2c(C)[nH]c4ccc(C(F)(F)F)cc24)C3=O)cn1
Task: Returns the items ordered by pIC50, from maximum to minimum. Note for the reader: the ranking is given by listing the labels in the order requested.
Result: d, c, a, b

(A) Cc1cn(-c2ccc3n(c2=O)CCN(Cc2ccc(Cl)c(Cl)c2)C3=O)cn1
(B) Cc1cn(-c2ccc3n(c2=O)CC(C)N(C(C)c2cn(C)c4cc(F)c(Cl)cc24)C3=O)cn1 (single isomer, unassigned) [compound 190]
(C) Cc1cn(-c2ccc3n(c2=O)C[C@@H](C)N(Cc2cn(C)c4c(C(F)(F)F)cc(F)cc24)C3=O)cn1
(D) Cc1cn(-c2ccc3n(c2=O)CCN(Cc2ccccc2N2CCCCC2)C3=O)cn1
Task: Returns the items ordered by pIC50, from maximum to minimum. Note for the reader: the ranking is given by listing the labels in the order requested.
Result: B, C, A, D

* * *

System: Aβtotal
Experiment: In vivo efficacy: brain soluble Aβtotal in non-transgenic rodents (ELISA)
Conditions: Mus musculus, dose 30 mg/kg oral dosing, brain soluble fraction, animals sacrificed after 4 h, untreated animals (Ctrl) set at 100, read-out: Aβtotal (% vs Ctrl)_Mean
Observed Property: response vs control in vivo at 30 mg/kg (%)
Write it as a number; the unit % goes unstated.

Lab note: Cc1cn(-c2ccc3n(c2=O)C[C@@H](C)N(Cc2ccc(Cl)c(C(F)(F)F)c2)C3=O)cn1 gave response vs control in vivo at 30 mg/kg of 98

Lab note: Cc1cn(-c2ccc3n(c2=O)C[C@@H](C)N(Cc2cc(Cl)cc(C(F)(F)F)c2)C3=O)cn1 gave response vs control in vivo at 30 mg/kg of 124

Lab note: Cc1cn(-c2ccc3n(c2=O)CC(C)N(Cc2cc(OCC4CC4)cc(C(F)(F)F)c2)C3=O)cn1.Cl (stereo not drawn) gave response vs control in vivo at 30 mg/kg of 102

Lab note: Cc1cc(CN2C(=O)c3ccc(-n4cnc(C)c4)c(=O)n3C[C@H]2C)cc(C(F)(F)F)c1 gave response vs control in vivo at 30 mg/kg of 126

Lab note: Cc1cn(-c2ccc3n(c2=O)CCN(Cc2ccc(C)c(N4CCCCC4)c2)C3=O)cn1 gave response vs control in vivo at 30 mg/kg of 113

Lab note: Cc1cn(-c2ccc3n(c2=O)CCN(Cc2ccc(Cl)c(C(F)(F)F)c2)C3=O)cn1 gave response vs control in vivo at 30 mg/kg of 114

Lab note: Cc1cn(-c2ccc3n(c2=O)CCN(Cc2cccc(-c4ccccc4)c2)C3=O)cn1 gave response vs control in vivo at 30 mg/kg of 87

Lab note: Cc1cn(-c2ccc3n(c2=O)CCN(Cc2ccccc2C)C3=O)cn1 gave response vs control in vivo at 30 mg/kg of 92

Lab note: Cc1cn(-c2ccc3n(c2=O)C[C@@H](C)N(Cc2cc(N4CCC(C)CC4)ccc2Cl)C3=O)cn1 gave response vs control in vivo at 30 mg/kg of 119

Lab note: Cc1cn(-c2ccc3n(c2=O)C[C@@H](C)N(Cc2cccc(C(C)(C)C)c2)C3=O)cn1 gave response vs control in vivo at 30 mg/kg of 122

Further cases:
Lab note: Cc1cn(-c2ccc3n(c2=O)C[C@@H](C)N(Cc2cc(N4CCCC4)ccc2Cl)C3=O)cn1 gave response vs control in vivo at 30 mg/kg of 125

Lab note: Cc1cn(-c2ccc3n(c2=O)C[C@@H](C)N(Cc2ccc(Cl)c(Cl)c2)C3=O)cn1 gave response vs control in vivo at 30 mg/kg of 100

* * *

Biological target: γ-secretase (Homo sapiens, UniProt P49768)
Construct: endogenous in cells; host or cells: SKNBE2 human neuroblastoma cells (carrying hAPP 695 wild type as substrate)
Experiment: Screening for γ-secretase-modulating activity: Aβ42 in supernatant of SKNBE2 cells carrying hAPP 695 wild type (Alphalisa)
Assay type: cell-based
Details: SKNBE2 human neuroblastoma cells carrying hAPP 695 wild type, overnight incubation, Aβ42 in cell supernatant
Observed Property: IC50 (nM)

(A) C[C@@H]1Cn2c(ccc(-n3cnc(Cl)c3)c2=O)C(=O)N1Cc1cc(C(F)(F)F)cc(C(F)(F)F)c1
(B) Cc1cn(-c2ccc3n(c2=O)CCN(C2CCCc4ccc(C(F)(F)F)cc42)C3=O)cn1 (stereo not drawn)
(C) Cc1cn(-c2ccc3n(c2=O)C[C@@H](C)N(C(C)c2cc(CC4CC4)cc(C(F)(F)F)c2)C3=O)cn1 (single isomer, unassigned) [compound 135]
(D) Cc1cn(-c2ccc3n(c2=O)C[C@@H](C)N(Cc2cn(C)c4c(F)cc(C(F)(F)F)cc24)C3=O)cn1
(E) Cc1cn(-c2ccc3n(c2=O)C[C@@H](C)N(Cc2ccc4c(c2)OC(F)(F)O4)C3=O)cn1
Task: Hello, I need these entries ordered by IC50, highest reading first. Thanks! Note for the reader: the ranking is given by listing the labels in the order requested.
Result: B, E, A, C, D

(A) CCn1cc(C(C)N2C(=O)c3ccc(-n4cnc(C)c4)c(=O)n3CC2C)c2cc(Cl)c(F)cc21 (single isomer, unassigned) [compound 191]
(B) Cc1cn(-c2ccc3n(c2=O)CC(C)N(Cc2cn(-c4ccccc4)c4cc(Br)ccc24)C3=O)cn1 (stereo not drawn)
(C) CCc1cn(-c2ccc3n(c2=O)CC(C)N(Cc2cc(C(F)(F)F)cc(C(F)(F)F)c2)C3=O)cn1.Cl (stereo not drawn)
(D) Cc1cn(-c2ccc3n(c2=O)CCN(Cc2cccc(Cl)c2F)C3=O)cn1
(E) Cc1cn(-c2ccc3n(c2=O)CCN(Cc2ccccc2C)C3=O)cn1
Task: Give the ascending ranking of the items by reported IC50. Note for the reader: the ranking is given by listing the labels in the order requested.
Result: B, C, A, D, E

(A) COc1ccc(Cl)cc1CCN1C(=O)c2ccc(-n3cnc(C)c3)c(=O)n2C[C@H]1C
(B) COc1cc2c(cc1Cl)c(C(C)N1C(=O)c3ccc(-n4cnc(C)c4)c(=O)n3C[C@H]1C)cn2C (single isomer, unassigned)
(C) Cc1cn(-c2ccc3n(c2=O)CCN(C(C)c2ccc(Cl)c(Cl)c2)C3=O)cn1 (single isomer, unassigned)
(D) Cc1cn(-c2ccc3n(c2=O)C[C@@H](C)N(Cc2cc(N4CCC(C)CC4)ccc2Cl)C3=O)cn1
Task: Give the ascending ranking of the items by reported IC50. Note for the reader: the ranking is given by listing the labels in the order requested.
Result: B, D, A, C

(I) Cc1cn(-c2ccc3n(c2=O)CCN(Cc2cc(C(F)(F)F)cc(C(F)(F)F)c2)C3=O)cn1
(II) Cc1cn(-c2ccc3n(c2=O)C[C@@H](C)N(Cc2ccc(C(F)(F)F)cc2)C3=O)cn1
(III) Cc1cn(-c2ccc3n(c2=O)CCN(C2CC2c2ccc(Cl)cc2)C3=O)cn1 (stereo not drawn)
(IV) Cc1cn(-c2ccc3n(c2=O)CCN(Cc2ccc4c(c2)OCCCO4)C3=O)cn1
Task: Returns the items ordered by IC50, from maximum to minimum. Note for the reader: the ranking is given by listing the labels in the order requested.
Result: IV, III, II, I
(IV: 6760 nM, III: 2040 nM, II: 620 nM, I: 210 nM)

(1) Cc1cn(-c2ccc3n(c2=O)CC(C)N(C(C)c2cn(C)c4ccc(C(F)(F)F)cc24)C3=O)cn1 (single isomer, unassigned) [compound 214]
(2) Cc1cn(-c2ccc3n(c2=O)CCN(Cc2cccc(N4CCCCC4)c2)C3=O)cn1
Task: Could you kindly indicate whether 1 or 2 has the higher IC50 value? Indicate which entry you chose by stating its label.
Result: 2
(2: 760 nM, 1: 240 nM)
